Every entry's value here was drawn from patent US10414754B2.

biological target: Bcl-2 protein (histag-Bcl-2, UniProtKB P10415) (Homo sapiens, UniProt P10415); construct: His tag; assay: Inhibition of Bcl-2 by the fluorescence polarisation technique; type: binding; conditions: fluorescence polarisation, 2 hours incubation; read-out: IC50 (nM) Bcl-2 FP
Sequence (P10415 whole entry): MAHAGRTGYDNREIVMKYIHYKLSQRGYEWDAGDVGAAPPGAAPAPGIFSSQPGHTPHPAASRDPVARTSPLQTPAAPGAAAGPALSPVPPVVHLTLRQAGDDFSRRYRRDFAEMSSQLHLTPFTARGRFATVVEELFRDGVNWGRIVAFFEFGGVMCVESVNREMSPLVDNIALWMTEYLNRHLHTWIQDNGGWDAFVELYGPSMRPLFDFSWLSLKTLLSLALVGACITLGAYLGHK
Structures can show the parent of a compound that is named as a salt.
Parameter: IC50 (nM)

Look at this compound and give its reported IC50. O=C(c1cc(-c2cc3c(cc2C(=O)N2Cc4ccccc4C[C@H]2CO)OCO3)n2c1CCCC2)N(c1ccccc1)c1ccc(O)cc1 7.5

Repeat for the following compound: C[C@@H]1Cc2ccccc2CN1C(=O)c1cc2c(cc1-c1cc(C(=O)N(c3ccc(O)cc3)c3ccc4c(ccn4CCN4CCOCC4)c3)c3n1CCCC3)OCO2 [Example 2, hydrochloride] 17

Repeat for the following compound: CC(C)c1cc(N(C(=O)c2cc(-c3cc4c(cc3C(=O)N3Cc5ccccc5C[C@H]3C)OCO4)n3ccccc23)c2ccc(O)cc2)ccn1 [Example 58, hydrochloride] 6.4

P: C[C@@H]1Cc2ccccc2CN1C(=O)c1cc2c(cc1-c1cc(C(=O)N(c3ccccc3)c3ccc(O)cc3)c3n1CCCC3)OCO2
Q: Cc1ccc(N(C(=O)c2cc(-c3cc(F)ccc3C(=O)N3Cc4ccccc4C[C@H]3C)n3c2CNCC3)c2ccc(O)cc2)cc1F [Example 10, hydrochloride]
Which value of IC50 is smaller, the one for P or the one for Q ? State your choice using its label. P

a: C[C@@H]1Cc2ccccc2CN1C(=O)c1cc2c(cc1-c1cc(C(=O)N(c3ccncc3)c3ccc(O)cc3)c3n1CCCC3)OCO2 [Example 42, hydrochloride]
b: C[C@@H]1Cc2ccccc2CN1C(=O)c1cc2c(cc1-c1cc(C(=O)N(c3ccc(O)cc3)c3ccc4c(ccn4C)c3)c3n1CCCC3)OCO2
c: CCN(C(=O)c1cc(-c2cc3c(cc2C(=O)N2Cc4ccccc4C[C@H]2C)OCO3)n2c1CNCC2)c1ccc(O)cc1
// ranking: key=IC50, reverse=True // rank by listing labels in the order requested c, b, a
